- Tested on: C. elegans
- ASSAY INFO: microbe, parasite or virus in culture
- CONDITION INFO: Caenorhabditis elegans, 0 h, read-out: Percentage of motility inhibition 0 h, Table S2, C. elegans SS assay, 110 μM, 0 h, averages of 4 data points
inhibition at 110 µM by entry:
// return numeric value only (unit: %, not printed)

>  <MOLECULE>
CC(C)NCC(O)COc1cccc2ccccc12 (stereo not drawn) [Propranolol, reference compound]

>  <inhibition at 110 µM / %>
0

$$$$
>  <MOLECULE>
CC(C)=C1CC[C@@H](C)CC1=O [Pulegone]

>  <inhibition at 110 µM / %>
6

$$$$
>  <MOLECULE>
CN(C)[C@@H]1C(O)=C(C(N)=O)C(=O)[C@@]2(O)C(O)=C3C(=O)c4c(O)cccc4[C@@](C)(O)[C@H]3C[C@@H]12 [Tetracycline]

>  <inhibition at 110 µM / %>
39

$$$$
>  <MOLECULE>
COc1ccc(-c2cc(=O)c3c(O)cc(O)cc3o2)cc1 [Acacetin]

>  <inhibition at 110 µM / %>
9

$$$$
>  <MOLECULE>
COc1ccc([C@@H]2CC(=O)c3c(O)cc(O[C@@H]4O[C@H](CO)[C@@H](O)[C@H](O)[C@H]4O[C@@H]4O[C@@H](C)[C@H](O)[C@@H](O)[C@H]4O)cc3O2)cc1 [Poncirin]

>  <inhibition at 110 µM / %>
13

$$$$
>  <MOLECULE>
CCC[C@H](NC(=O)[C@@H]1[C@H]2CCC[C@H]2CN1C(=O)[C@@H](NC(=O)[C@@H](NC(=O)c1cnccn1)C1CCCCC1)C(C)(C)C)C(=O)C(=O)NC1CC1 [Telaprevir]

>  <inhibition at 110 µM / %>
7

$$$$
>  <MOLECULE>
OC[C@@H](O)[C@@H](O)[C@H](O)[C@H](O)CO [D-Mannitol]

>  <inhibition at 110 µM / %>
11

$$$$
>  <MOLECULE>
[H]/N=C(\N/C(=N/[H])NCCCCCCNC(=N)NC(=N)Nc1ccc(Cl)cc1)Nc1ccc(Cl)cc1 [Chlorhexidine]

>  <inhibition at 110 µM / %>
38

$$$$
>  <MOLECULE>
O=c1c(O)c(-c2ccc(O)cc2)oc2cc(O)cc(O)c12 [Kaempferol]

>  <inhibition at 110 µM / %>
0

$$$$
>  <MOLECULE>
CSCC1CN(/N=C/c2ccc([N+](=O)[O-])o2)C(=O)O1 (stereo not drawn) [Nifuratel]

>  <inhibition at 110 µM / %>
0

$$$$

Enquiry: // lookup inhibition at 110 µM | system=C. elegans | key= O=C(O)CNCC(=O)O [Iminodiacetic acid]
Return: 15

Enquiry: // lookup inhibition at 110 µM | system=C. elegans | key= CC(C)[C@@H]1CC[C@@H](C)CC1=O [Menthone]
Return: 17

Enquiry: // lookup inhibition at 110 µM | system=C. elegans | key= Cc1cc(CCCOc2c(C)cc(-c3noc(C(F)(F)F)n3)cc2C)on1 [Pleconaril]
Return: 4

Enquiry: // lookup inhibition at 110 µM | system=C. elegans | key= C=C1C(=O)O[C@@H]2O[C@@]3(C)CC[C@H]4[C@H](C)CC[C@@H]1[C@@]24OO3 [Artemisitene]
Return: 0

Enquiry: // lookup inhibition at 110 µM | system=C. elegans | key= CC(C)(O)[C@@H]1[C@H]2OC(=O)[C@@H]1[C@]1(O)C[C@H]3O[C@]34C(=O)O[C@H]2[C@]14C [Picrotin]
Return: 0

----------
Percentage of motility inhibition 0 h by entry:
- Tested on: C. elegans
- CONDITION INFO: Table S2, C. elegans SS assay, 110 μM, 0 h, averages of 4 data points
// return numeric value only (unit: %, not printed)

>  <MOLECULE>
CC(C)=CC/C=C(\C)[C@H]1CC[C@]2(C)[C@@H]1[C@H](O)C[C@@H]1[C@@]3(C)C[C@@H](O)[C@H](O[C@@H]4O[C@H](CO)[C@@H](O)[C@H](O)[C@H]4O[C@@H]4O[C@H](CO)[C@@H](O)[C@H](O)[C@H]4O)C(C)(C)[C@@H]3CC[C@]12C [Damulin A]

>  <UOM>
%

>  <MEASURED VALUE>
5

$$$$

Consider the additional molecule presented here.
Enquiry: Requested read-out: Percentage of motility inhibition 0 h. Entry: C[C@@H]1O[C@@H](O[C@H]2[C@H](O)[C@@H](O)[C@H](O[C@H]3CC[C@]4(C)[C@H]5CC=C6[C@@H]7CC(C)(C)CC[C@]7(CO)[C@@H](O)C[C@@]6(C)[C@]5(C)CC[C@H]4C3(C)C)O[C@@H]2CO[C@@H]2O[C@H](CO)[C@@H](O)[C@H](O)[C@H]2O)[C@H](O)[C@H](O)[C@H]1O [Saikosaponin F]
Return: 1

----------
- System: C. elegans
- CONDITION INFO: Table S2, C. elegans SS assay, 110 μM, 0 h, averages of 4 data points
READOUT: Percentage of motility inhibition 0 h (%)
// return numeric value only (unit: %, not printed)

>  <COMPOUND>
Cn1c(=O)c2c(c3ccccc31)OC(C)(C)C=C2

>  <EXPERIMENTAL TARGET>
C. elegans

>  <Percentage of motility inhibition 0 h, %>
0

$$$$
>  <COMPOUND>
CC(C)(C)NCc1cc(Nc2ccnc3cc(Cl)ccc23)c2c(c1O)CCCC2.O=P(O)(O)O.O=P(O)(O)O [Naphthoquine (phosphate)]

>  <EXPERIMENTAL TARGET>
C. elegans

>  <Percentage of motility inhibition 0 h, %>
28

$$$$

Enquiry: Requested read-out: Percentage of motility inhibition 0 h. Entry: Cc1cc(CC(C)CC(C)(C)C)n(O)c(=O)c1.NCCO (stereo not shown)
Return: 5

Enquiry: Requested read-out: Percentage of motility inhibition 0 h. Entry: C1CNCCN1.O.O.O.O.O.O [Piperazine (hexahydrate)]
Return: 58

Enquiry: Requested read-out: Percentage of motility inhibition 0 h. Entry: C[C@H]1CC[C@@H]2N(C1)C[C@H]1[C@@H]3C[C@H]4[C@@H](C[C@H](O)[C@H]5C[C@@H](O)CC[C@@]54C)[C@@H]3CC[C@@H]1[C@]2(C)O
Return: 7

Enquiry: Requested read-out: Percentage of motility inhibition 0 h. Entry: COC(=O)N[C@H](C(=O)N1CC2(CC2)C[C@H]1c1nc(-c2ccc3c(c2)C(F)(F)c2cc(-c4ccc5[nH]c([C@@H]6[C@H]7CC[C@H](C7)N6C(=O)[C@@H](NC(=O)OC)C(C)C)nc5c4)ccc2-3)c[nH]1)C(C)C
Return: 14

Enquiry: Requested read-out: Percentage of motility inhibition 0 h. Entry: C=CC1=C(C)c2cc3[n-]c(cc4[n-]c(cc5nc(cc1n2)C(C)=C5C=C)c(C)c4CCC(=O)O)c(CCC(=O)O)c3C.[Fe+2]
Return: 0

----------
- Tested on: C. elegans
- ASSAY INFO: microbe, parasite or virus in culture
- CONDITION INFO: Caenorhabditis elegans, 24 h, read-out: Percentage of motility inhibition 24 h, Table S2, C. elegans SS assay, 110 μM, 24 h, averages of 4 data points
READOUT: inhibition at 110 µM (%)
// return numeric value only (unit: %, not printed)

The cases that follow already have their inhibition at 110 µM on record.
>  <COMPOUND>
CN1CCc2cc3c(c4c2C1Cc1ccccc1-4)OCO3 (stereo not drawn)

>  <EXPERIMENTAL TARGET>
C. elegans

>  <READOUT>
inhibition at 110 µM

>  <MEASURED VALUE>
0

$$$$
>  <COMPOUND>
C=C[C@]1(C)C[C@@H](OC(=O)CS[C@@H]2C[C@H]3CC[C@@H](C2)N3C)[C@]2(C)[C@H](C)CC[C@]3(CCC(=O)[C@H]32)[C@@H](C)[C@@H]1O

>  <EXPERIMENTAL TARGET>
C. elegans

>  <READOUT>
inhibition at 110 µM

>  <MEASURED VALUE>
9

$$$$
>  <COMPOUND>
Oc1ccc(Cl)cc1Cc1cc(Cl)ccc1O

>  <EXPERIMENTAL TARGET>
C. elegans

>  <READOUT>
inhibition at 110 µM

>  <MEASURED VALUE>
0

$$$$
>  <COMPOUND>
C[C@@H]1CC[C@]2(C(=O)O)CC[C@]3(C)C(=CC[C@@H]4[C@@]5(C)CC[C@H](O)[C@@](C)(CO)[C@@H]5CC[C@]43C)[C@@H]2[C@]1(C)O

>  <EXPERIMENTAL TARGET>
C. elegans

>  <READOUT>
inhibition at 110 µM

>  <MEASURED VALUE>
45

$$$$
>  <COMPOUND>
COc1cc(-c2oc3cc(O)cc(O)c3c(=O)c2O[C@@H]2O[C@H](CO[C@@H]3O[C@@H](C)[C@H](O)[C@@H](O)[C@H]3O)[C@@H](O)[C@H](O)[C@H]2O)ccc1O [Narcissin]

>  <EXPERIMENTAL TARGET>
C. elegans

>  <READOUT>
inhibition at 110 µM

>  <MEASURED VALUE>
25

$$$$
>  <COMPOUND>
O=C(O)c1c[nH]c2ccccc12

>  <EXPERIMENTAL TARGET>
C. elegans

>  <READOUT>
inhibition at 110 µM

>  <MEASURED VALUE>
0

$$$$

Enquiry: // lookup inhibition at 110 µM | system=C. elegans | key= O=C1C=CC[C@@H]2[C@H]3CCC[N+]4([O-])CCC[C@@H](CN12)[C@@H]34 (stereo partly drawn)
Return: 0

Enquiry: // lookup inhibition at 110 µM | system=C. elegans | key= CC(C)=CCC[C@](C)(O[C@@H]1O[C@H](CO)[C@@H](O)[C@H](O)[C@H]1O)[C@H]1CC[C@]2(C)[C@@H]1[C@H](O)C[C@@H]1[C@@]3(C)CC[C@H](O)C(C)(C)[C@@H]3[C@@H](O)C[C@]12C [Ginsenoside F1]
Return: 2

Enquiry: // lookup inhibition at 110 µM | system=C. elegans | key= COc1ccc(Cc2cnc(N)nc2N)cc1OC
Return: 32

Enquiry: // lookup inhibition at 110 µM | system=C. elegans | key= CO[C@H]1/C=C/O[C@@]2(C)Oc3c(C)c(O)c4c(O)c(c(/C=N/N5CCN(C6CCCC6)CC5)c(O)c4c3C2=O)NC(=O)/C(C)=C\C=C\[C@H](C)[C@H](O)[C@@H](C)[C@@H](O)[C@@H](C)[C@H](OC(C)=O)[C@@H]1C
Return: 13

Enquiry: // lookup inhibition at 110 µM | system=C. elegans | key= Cn1c(N2CCCCS2(=O)=O)nc(C(=O)NCc2ccc(F)cc2)c(O)c1=O
Return: 1

Enquiry: // lookup inhibition at 110 µM | system=C. elegans | key= C=C1C(=O)O[C@@H]2C[C@@]3(C)[C@@H](O)C[C@@H](O)C(=C)[C@@H]3C[C@H]12
Return: 13

Enquiry: // lookup inhibition at 110 µM | system=C. elegans | key= COc1cc2c3c(c1OC)-c1ccccc1C[C@H]3N(C)CC2
Return: 16

Enquiry: // lookup inhibition at 110 µM | system=C. elegans | key= CC12CCC(CC1=O)C2(C)C (stereo not drawn)
Return: 5

Enquiry: // lookup inhibition at 110 µM | system=C. elegans | key= CC[C@H]1CN2CC[C@]3(C(=O)Nc4ccccc43)[C@@H]2C[C@@H]1/C(=C\OC)C(=O)OC
Return: 8
